Below, each entry is listed alongside its reported melting point.
Readout name: melting point (°C)

CCN(c1ccc(N2CCN(c3ccc(OC)cc3)CC2)cc1)c1nc(-c2ccccc2)cs1: 224
COc1cccc(OC)c1NC(=O)c1ccc2nc(N[C@@H]3CCc4ccccc43)ccc2c1: 199

---

Each item that follows carries a reported melting point.
Readout name: melting point

Cc1ncc(C#N)c(Nc2ccc3[nH]ccc3c2C)c1-c1cc2cc(CN3CCN(C)CC3)ccc2o1: 218 to 220 °C
CC(=O)NC(Cc1csc2ccccc12)C(=O)C=Cc1cc(C(F)(F)F)cc(C(F)(F)F)c1 (stereo not given): 172 to 173 °C
O=C(NCc1ccccc1Cl)Nc1ccc([N+](=O)[O-])cc1O: 199 to 200 °C
Cc1oc(-c2ccccc2F)nc1CCOc1ccc(CN(O)C(N)=O)cc1: 151 to 152 °C
CC(=O)OCc1nc2nc(O)cnc2c(=O)[nH]1: > 300 °C
CC(C)(C)c1ccc(N)nn1: 125 to 132 °C
C=CCc1ccc2c(c1)CCC2O (stereo not given): 54 °C
CCCCc1nc(Cc2ccc(-c3ccccc3C(=O)O)cc2)c(CC(=O)O)c(Cc2ccc(-c3ccccc3C(=O)O)cc2)n1: 160 °C
Cc1cnc2nc(SCc3ccccc3)nn2c1: 254 to 256 °C
NC(=O)C1CCc2cc(S(=O)(=O)Nc3ccc(-n4nnn(CCCC5CCCC5)c4=O)cc3)ccc2O1 (stereo not given): 202 to 205 °C
COc1ccc(CC(Cc2ccccc2)C(=O)O)cc1 (stereo not given): 72 to 76.5 °C
CC(C)C(=O)Nc1ccc(N)c(C(F)(F)F)c1: 114 to 116 °C
COc1ccc2cc(N3CCN(C4CCC(c5c[nH]c6ccc(F)cc56)CC4)CC3)ccc2c1 (stereo not given): 200 to 203 °C
CCOC(=O)C(C(=O)OCC)=C(SCc1ccc(OC)cc1)SCc1ccc(OC)cc1: 57 to 59 °C
CCCCNc1c(C(=O)OCC)c(C)nc2c1nnn2CC: 42 to 43 °C
O=C(C1CCC(Nc2nccc(-n3nnc4c(-c5ccoc5)cccc43)n2)CC1)N1CCC(O)CC1 (stereo not given): 243 to 244 °C
CN(C)[C@H]1CCN(C(=O)c2ccc(Cc3cn(C)c4ccccc34)cc2)C1: 101 to 105 °C
CC1=NC=CC(C)(c2c(F)cc3c(=O)c(C(=O)O)cn4c3c2OCC4C)C1 (stereo not given): 308 to 312 °C
Clc1cnc2cccc(Cl)c2n1: 120 to 122 °C
CCOCc1nc2c(N)nc3ccccc3c2n1N1CCOCC1: 223 to 224 °C

---

Property: melting point; scope: individual molecules
Readout name: melting point

COCCOc1ccc([N+](=O)[O-])cc1F: 62 to 63 °C
O=C1C(c2cccc(-c3ccccc3)c2)n2cncc2CN1Cc1ccccc1 (stereo unspecified): 232 to 234 °C
O=C(CCCCl)c1ccc2c(c1)Cc1cc(C(=O)CCCCl)ccc1O2: 131 to 132 °C
O=C(O)COc1cc2c(=O)c3c(F)cccc3oc2cc1Cl: 242 to 245 °C
Clc1ccc(C2=NOCCS2)cc1: 80.5 to 81.5 °C
CC(=O)Nc1c(I)c(NC(C)=O)c(I)c(C(=O)OCC(O)CO)c1I (stereo unspecified): 207 °C
CCC1=Nc2c(C)nn(C)c2C2=NC(C)CN12 (stereo unspecified): 153 to 155 °C
Cc1c(NC(=O)c2ccc(OC[C@@H]3CCCO3)cc2F)ccc2cc(CNCC(C)(C)O)cnc12: 167 to 168 °C
CC1=CC(c2ccccc2[N+](=O)[O-])C=C(CN2C(=O)c3ccccc3C2=O)N1 (stereo unspecified): 137 to 138 °C
CCOC(=O)C1=C(C)N2CCNC2=C(C(=O)OCC)C1c1cccc2ccccc12 (stereo unspecified): 169 to 170 °C
CN(C=O)C1CCN(CC2=Cc3ccccc32)CC1: 86 to 88 °C
CC1(C)C(=CC=C2C(=O)c3ccccc3C2=C(C#N)C#N)N2CCc3cccc1c32: 277 °C
CC(C)(C)OC(=O)CN1CCN(c2ccnc(C#N)c2)C1=O: 139 to 140 °C
Cc1cc(F)ccc1C(=C(C=O)c1nnnn1C)c1ccc(F)cc1C: 135 to 136 °C
CN(CCC(O)c1ccc(Cl)cc1)Cc1ccccc1F (stereo unspecified): 52 to 54 °C
OC1CSC(Oc2cccc(-c3ncccc3F)c2)C(O)C1O (stereo unspecified): 150 °C
CCCCCC(C)(C)NC(=O)CN1C(=O)c2ccccc2C1=O: 142 °C
COC(=O)CN(C)C(=S)c1cccc2c(Br)cccc12: 85 to 86 °C
Cc1nc(NC(=O)c2cnn3c(C(F)(F)F)cc(-c4ccc(C(F)(F)F)c(Cl)c4)nc23)sc1S(=O)(=O)NC(C)(C)CO: 274 °C
COc1ccc(N=C(Cl)c2cccc([N+](=O)[O-])c2)cc1: 108 °C
Cc1scc2c1N(C(=O)NCCN1CCC(CCCN(C)C)CC1)c1ccccc1NC2=O: > 300 °C
O=C(COc1ccc(NC(=O)OCCO)cc1)OCCOC(=O)COc1ccc(NC(=O)OCCO)cc1: 158 to 161 °C
CCOC(=O)/C=C/C=C/c1ccc(OC(C)C)cc1: 64 to 65 °C
Nc1nnc(-c2ccc(C(F)(F)F)cc2)n1-c1cc(Cl)ccc1O: 147 to 155 °C
CN1CCC(c2c[nH]c3ccc(C(=O)Cc4ccccc4)cc23)CC1: 69 °C
Cn1cc(Oc2ccccc2)c(=S)c(-c2cccc(C(F)(F)F)c2)c1: 127 to 131 °C
Cc1cc(NC(=O)c2c(Cl)cccc2Cl)c2nccc(-n3ccnc3)c2c1: 260 to 261 °C
CN1Cc2c(Br)ncn2-c2ccc(F)cc2C1=O: 200 °C
O=C(Cc1cccnc1)c1ccc(Oc2ccccc2)cc1: 81 to 83 °C
O=Cc1ccc(C#Cc2ccc(Cl)cc2)cc1: 123 °C
CCOC(=O)C(C)(C#N)Cc1cc([N+](=O)[O-])ccc1Cl (stereo unspecified): 72 to 74 °C
CN1CCC[C@H]1c1cnc(Cl)c(Cl)c1C(O)(c1ccccc1)c1ccccc1: 170 to 172 °C
COC(=O)c1cc(-c2nccs2)cc2c1OC(c1ccccc1)(c1ccccc1)O2: 154 to 155 °C
CCCCCCCCCCCNC(=O)NCCCC: 70 °C
O=C(O)COc1c(-c2ccccc2)c(=O)[nH]c2cc(Cl)ccc12: 269 to 272 °C
CC(=O)Nc1ccc(S(=O)(=O)Nc2ccn(C3CCCC3)c(=O)n2)cc1: 219 to 228 °C
O=C(CCCCCl)c1ccc2c(c1)Cc1cc(C(=O)CCCCCl)ccc1O2: 134 to 135 °C
Cc1cc2c(/C=C/C(=O)OCc3ccccc3)cccc2[nH]1: 135 to 136 °C
CN1CCc2nc3ccc(Cl)cc3c(Nc3ccccc3)c2C1: 137 to 139 °C
Cc1cnc2[nH]cc(/C=C3\N=C(N4CCCCC4)NC3=O)c2c1: 320 to 321 °C
Nc1ccc(Cc2ccc(C3(c4ccc(Cc5ccc(N)cc5)cc4)CCCCC3)cc2)cc1: 154 to 156 °C
